# System: thoracic aorta of rats
# assay_notes: Relaxing effect on thoracic aorta contracted by phenylephrine (organ bath)
# Set-up: species or system rats of SD species
# condition_label: Rattus norvegicus; 67 μg/mL; phenylephrine 0.5 μM; mean n = 3; read-out: Relaxation percentage
// label = criterion met if inhibition at 67 µg/mL is not less than 20%, otherwise criterion not met

Use the examples below as a reference point.
[
  {
    "molecule": "CCOC(=O)N(CCCCNCCCn1c(=O)[nH]c2ccccc2c1=O)CCCn1c(=O)[nH]c2ccccc2c1=O",
    "label_class": "criterion not met"
  },
  {
    "molecule": "O=C(OCc1ccccc1)N(CCCCNCCCn1c(=O)[nH]c2ccccc2c1=O)CCCn1c(=O)[nH]c2ccccc2c1=O",
    "label_class": "criterion met"
  },
  {
    "molecule": "CS(=O)(=O)N(CCCCNCCCn1c(=O)[nH]c2ccccc2c1=O)CCCn1c(=O)[nH]c2ccccc2c1=O",
    "label_class": "criterion not met"
  }
]

-- ask Please indicate if the recorded inhibition at 67 µg/mL for NCCCNCCCCNCCCn1c(=O)[nH]c2ccccc2c1=O meets or exceeds 20%.
-- reply criterion not met

-- ask For O=C(c1ccccc1)N(CCCCNCCCn1c(=O)[nH]c2ccccc2c1=O)CCCn1c(=O)[nH]c2ccccc2c1=O then?
-- reply criterion not met

-- ask For Cn1c(=O)n(CCCN(CCCCN(CCCn2c(=O)c3ccccc3n(C)c2=O)C(=O)OC(C)(C)C)C(=O)OC(C)(C)C)c(=O)c2ccccc21 then?
-- reply criterion not met

-- ask For O=c1[nH]c2ccccc2c(=O)n1CCCNCCCCNCCCn1c(=O)[nH]c2ccccc2c1=O then?
-- reply criterion not met

-- ask For O=c1[nH]c2ccccc2c(=O)n1CCCCNCCCn1c(=O)[nH]c2ccccc2c1=O then?
-- reply criterion met

-- ask For O=C(NCCCNCCCCNCCCn1c(=O)[nH]c2ccccc2c1=O)c1ccc(O)cc1 then?
-- reply criterion met

-- ask For CC(=O)N(CCCCNCCCNC(=O)c1ccc(O)cc1)CCCn1c(=O)[nH]c2ccccc2c1=O then?
-- reply criterion not met

-- ask For CC(=O)N(CCCCN(CCCn1c(=O)[nH]c2ccccc2c1=O)C(C)=O)CCCn1c(=O)[nH]c2ccccc2c1=O then?
-- reply criterion not met

-- ask For COCC(=O)N(CCCCNCCCn1c(=O)[nH]c2ccccc2c1=O)CCCn1c(=O)[nH]c2ccccc2c1=O then?
-- reply criterion met

* * *

# Test system: thoracic aorta of rats
# assay_notes: Relaxing effect on thoracic aorta contracted by phenylephrine (organ bath)
# Design: species or system rats of SD species
# condition_label: Rattus norvegicus; 67 μg/mL; phenylephrine 0.5 μM; mean n = 3; read-out: Relaxation percentage
// label = MET if inhibition at 67 µg/mL is not less than 9%, otherwise NOT MET

Use the examples below as a reference point.
[
  {
    "molecule": "O=C1CCC(=O)N1CCCNCCCCNCCCn1c(=O)[nH]c2ccccc2c1=O",
    "label_class": "MET"
  },
  {
    "molecule": "CCCCCCn1c(=O)n(CCCNCCCCNCCCn2c(=O)c3ccccc3n(CCCCCC)c2=O)c(=O)c2ccccc21",
    "label_class": "MET"
  },
  {
    "molecule": "CS(=O)(=O)N(CCCCN(CCCn1c(=O)[nH]c2ccccc2c1=O)S(C)(=O)=O)CCCn1c(=O)[nH]c2ccccc2c1=O",
    "label_class": "MET"
  }
]

-- ask Please indicate if the recorded inhibition at 67 µg/mL for O=C1c2ccccc2C(=O)N1CCCNCCCCNCCCn1c(=O)[nH]c2ccccc2c1=O meets or exceeds 9%.
-- reply NOT MET

-- ask For CC(=O)N(CCCCNCCCn1c(=O)[nH]c2ccccc2c1=O)CCCNC(=O)c1ccc(O)cc1 then?
-- reply MET

-- ask For O=C(N(CCCCN(CCCn1c(=O)[nH]c2ccccc2c1=O)C(=O)C(F)(F)F)CCCn1c(=O)[nH]c2ccccc2c1=O)C(F)(F)F then?
-- reply NOT MET

-- ask For CC(=O)N(CCCCNCCCn1c(=O)[nH]c2ccccc2c1=O)CCCn1c(=O)[nH]c2ccccc2c1=O then?
-- reply MET

-- ask For CC(C)(C)OC(=O)N(CCCCN(CCCn1c(=O)[nH]c2ccccc2c1=O)C(=O)OC(C)(C)C)CCCn1c(=O)[nH]c2ccccc2c1=O then?
-- reply MET

-- ask For O=c1[nH]c2ccccc2c(=O)n1CCNCCCNCCn1c(=O)[nH]c2ccccc2c1=O then?
-- reply MET
